- Test system: NCI-H23 lung
- Experiment notes: NCI tumour cell line growth inhibition, 48 h

| Compound | TGI |
| --- | --- |
| NC(=S)SCCC(=O)O | > 100 µM |
| CCOC(=O)/C(=C/c1ccc(OC)c(OC)c1)C(=O)c1ccccc1 | 35.6 µM |
| CC(C)(Cl)CCC1=C(Cl)C(=O)c2ccccc2C1=O | 9.93 µM |
| COc1ccc(C(=S)c2cc(OC)c(OC)c(OC)c2)cc1OC(=O)CCl | > 100 µM |
| O=c1c2cccnc2[nH]c2ccc3scnc3c12 | > 10 µM |
| CCOC(=O)C1Cc2c(ccc(OC)c2OC)C(=O)C1N (centres undefined) | > 100 µM |
| C[C@H]1CCC/C=C/[C@@H]2C[C@H](O)C[C@H]2[C@H](O)[C@H](S(=O)c2ccc(O)cc2)CC(=O)O1 (some centres undefined) | 0.143 µM |
| COC(=O)CCc1ccc2c(c1)CCC2 | > 100 µM |
| CCCCCCCC1c2cc3[nH]c(cc4nc(cc5[nH]c(cc(n2)[C@@]1(C)CC(=O)N(C)C)c(C)c5CCC(=O)O)C(CCC(=O)O)=C4C)cc3C (some centres undefined) | 34.1 µM |
| CNC(=O)Nc1cc2c3c(c1)CCCN3CCC2 | > 10 µM |
| COc1cc(CC2CCc3nc(N)nc(N)c3C2)cc(OC)c1OC (centres undefined) | > 72.5 µM |
| COc1cccc(-c2nn(-c3ccccc3)cc2-c2ccnc(NCCNS(=O)(=O)c3ccc(C(F)(F)F)cc3)c2)c1 | > 100 µM |
| O=C(O)C(Cc1cccs1)NC(=O)C(F)(F)F (centres undefined) | > 100 µM |
| Nn1c(CCCl)nc2c(Br)cc(Br)cc2c1=O | 62.8 µM |
| CCOC(=O)Cc1ccc(Nc2nc3cc(C(F)(F)F)ccc3nc2C(=O)OCC)cc1 | > 100 µM |
| CC1=C(C)SC(=C2Sc3c(n(C)c(=O)[nH]c3=O)S2)S1 | > 100 µM |
| CC(=O)OCC1OC(n2c(C)c(N=Nc3ccc(C)cc3)c(C)c(C#N)c2=S)C(OC(C)=O)C(OC(C)=O)C1OC(C)=O (centres undefined) | > 100 µM |
| C[C@H](c1ccc(Cl)cc1N)N1C(=O)c2cc(I)ccc2N(CCCN2CCN(C)CC2)C(=O)[C@@H]1c1ccc(Cl)cc1 | 5.86 µM |
| CC(=O)O[C@H]1C(=O)[C@@]2(C)C(C(OC(=O)c3ccccc3)[C@]3(O)CC(OC(=O)C(O)C(NC(=O)c4ccccc4)c4ccc(F)cc4)C(C)=C1C3(C)C)[C@]1(OC(C)=O)CO[C@@H]1C[C@@H]2O (some centres undefined) | > 10 µM |

Every entry's value here was drawn from PubChem BioAssay (NCI).
